Experiment: yeast display, Sf9 membrane polyspecificity reagent, FACS + sequencing; frameworks hold sequencing errors
Assay Endpoint: polyreactivity (PSR sort gate)

Answered examples (4):
Entry Sequence | polyreactivity (PSR sort gate)
QVQLVESGGGLVQAGGSLRLSCAASGSTFLGNAMGWYRQAPGKEREFVAAITVSGGSTYYADSVKGRFTISRDNAKNTVYLQMNSLKPEDTAVYYCAARYLRYSSKTIQNEDYWGQVTQVTVSS | high polyreactivity
QVQLVESGGGLVQAGGSLRLSCAASGINFVYYAMGWYRQAPGTEREMVAAISKSSGRTYYADSVKGRFTISRDYAKNTVYLQMNSLKPEDTAVYYCNARYRLSPPPLEYWGQGTQVTVSS | high polyreactivity
QVQLVESGGGLVQAGGSLRLSCAASGGIFHGNTMGWYRQAPGKERELVAAISNSGGSTYYADSVKGRFTISRDNAKNTVYLQMNSLKPEDTAVYYCARVGYKLYQYKYDYWGQGTQVTVSS | low polyreactivity
QVQLVESGGGLDQAGGSLRLSCAASGSTFYYYAMGWYRQAPGKERELVATISSGSSTNYADSVKGRFTISRDNAKNTVYLQMNCLKPEDTAVYYCAADRWYITLSIDATISYDYWGQGTQVTVSS | low polyreactivity

Moving on to the next sequence.
I have this sequence here, QVQLVESGGGLVQAGGSLRLSCAASGSIVSTYAMGWYSQAPGKERELVAAITSTGSMNYADSVKGRFTISRDNAKNTVYLQMNSLKPEDTAVYYCAARYAGPSPTDTGHDYWGQGTQVTVSS , and I need its recorded polyreactivity (PSR sort gate).
low polyreactivity

src = the nanobody polyreactivity screen of Harvey et al. (2022)
